Tested on: wheat
measurement protocol: Phytotoxicity test for upland field crops (foliar treatment test)
Format: in vivo
Design: key: 0 (no harm); 9 (complete withered)
study conditions: 100 g ai/ha, Wheat (14 days after treatment)
metric name: Foliar treatment phytotoxicity, Wheat
Answer field: number only, no words.

Can you look up Foliar treatment phytotoxicity, Wheat on wheat for Cn1nnc(COCc2nc(C(F)(F)F)ccc2C(=O)N(C(=O)c2ccccc2)c2nnnn2C)n1 [Compound No. 2-68] ?
0

Can you look up Foliar treatment phytotoxicity, Wheat on wheat for Cn1nnc(CSCc2nc(C(F)(F)F)ccc2C(=S)Nc2nnnn2C)n1 [Compound No. 2-107] ?
3

Can you look up Foliar treatment phytotoxicity, Wheat on wheat for COc1nc(COCc2nc(C(F)(F)F)ccc2C(=O)Nc2nnnn2C)nn1C [Compound No. 2-129] ?
2

Can you look up Foliar treatment phytotoxicity, Wheat on wheat for Cn1ncnc1COc1nc(C(F)(F)F)ccc1C(=O)Nc1nnnn1C [Compound No. 1-45] ?
0

Can you look up Foliar treatment phytotoxicity, Wheat on wheat for Cc1nc(COCc2nc(C(F)(F)F)ccc2C(=O)Nc2nnnn2C)nn1C [Compound No. 2-116] ?
0

Can you look up Foliar treatment phytotoxicity, Wheat on wheat for CCCn1nnnc1NC(=O)c1ccc(C(F)(F)F)nc1COCc1nc(C(F)(F)F)n(C)n1 [Compound No. 2-120] ?
0

Can you look up Foliar treatment phytotoxicity, Wheat on wheat for C=C(C)c1nc(COCc2nc(C(F)(F)F)ccc2C(=O)Nc2nnnn2C)nn1C [Compound No. 2-128] ?
0

Can you look up Foliar treatment phytotoxicity, Wheat on wheat for Cn1nnc(CSCc2nc(C(F)F)ccc2C(=O)Nc2nnnn2C)n1 [Compound No. 2-108] ?
4

Can you look up Foliar treatment phytotoxicity, Wheat on wheat for CN(Cc1nnn(C)n1)c1nc(C(F)(F)F)ccc1C(=O)Nc1nnnn1C [Compound No. 2-26] ?
0

Can you look up Foliar treatment phytotoxicity, Wheat on wheat for CCCn1nnnc1NC(=O)c1ccc(C(F)(F)F)nc1COCc1ncn(C)n1 [Compound No. 2-114] ?
1

Can you look up Foliar treatment phytotoxicity, Wheat on wheat for C=CCn1nnnc1NC(=O)c1ccc(C(F)(F)F)nc1COCc1ncn(C)n1 [Compound No. 2-115] ?
0

Can you look up Foliar treatment phytotoxicity, Wheat on wheat for COC(=O)OC(C)N(C(=O)c1ccc(C(F)(F)F)nc1COCc1nnn(C)n1)c1nnnn1C (stereo not shown) [Compound No. 4-4] ?
2

Can you look up Foliar treatment phytotoxicity, Wheat on wheat for Cn1nnnc1NC(=O)c1ccc(C(F)(F)F)nc1COCc1nc(C(F)(F)F)n(C)n1 [Compound No. 2-118] ?
0

Can you look up Foliar treatment phytotoxicity, Wheat on wheat for Cn1nnc(CS(=O)(=O)Cc2nc(C(F)(F)F)ccc2C(=O)Nc2nnnn2C)n1 [Compound No. 2-105] ?
4

Can you look up Foliar treatment phytotoxicity, Wheat on wheat for Cn1nnc(COc2nc(C(F)(F)F)ccc2C(=O)Nc2nnnn2C)n1 [Compound No. 2-1] ?
0

Can you look up Foliar treatment phytotoxicity, Wheat on wheat for CCCn1nnnc1NC(=O)c1ccc(C(F)(F)F)nc1COCc1nnn(CC)n1 [Compound No. 2-89] ?
0

====

System: cotton
measurement protocol: Phytotoxicity test for upland field crops (foliar treatment test)
Assay type: in vivo
study conditions: 50 g ai/ha, Cotton (14 days after treatment)
Rule: measured Foliar treatment phytotoxicity, Cotton below 4 gets YES; anything equal to or greater than 4 gets NO.

Confirm or reject: Foliar treatment phytotoxicity, Cotton of Cc1nc(COCc2nc(C(F)(F)F)ccc2C(=S)Nc2nnnn2C)nn1C lies strictly below 4
YES

Confirm or reject: Foliar treatment phytotoxicity, Cotton of Cn1nnc(COCc2nc(C(F)F)ccc2C(=O)Nc2nnnn2C)n1 lies strictly below 4
NO

Confirm or reject: Foliar treatment phytotoxicity, Cotton of Cn1nc(COCc2nc(C(F)(F)F)ccc2C(=O)Nc2nnnn2C)nc1C#N lies strictly below 4
YES

Confirm or reject: Foliar treatment phytotoxicity, Cotton of Cn1nnc(COCc2nc(C(F)(F)C(F)(F)F)ccc2C(=O)Nc2nnnn2C)n1 lies strictly below 4
NO

Confirm or reject: Foliar treatment phytotoxicity, Cotton of Cn1nc(COCc2nc(C(F)(F)F)ccc2C(=O)Nc2nnnn2C)nc1Br lies strictly below 4
NO

Confirm or reject: Foliar treatment phytotoxicity, Cotton of Cc1nc(COCc2nc(C(F)(F)F)ccc2C(=O)Nc2nnnn2C)nn1C lies strictly below 4
YES

Confirm or reject: Foliar treatment phytotoxicity, Cotton of Cn1nnc(COCc2nc(C(F)(F)Cl)ccc2C(=O)Nc2nnnn2C)n1 lies strictly below 4
NO

Confirm or reject: Foliar treatment phytotoxicity, Cotton of Cn1nnc(COCc2nc(C(F)(F)F)ccc2C(=O)Nc2nnnn2C)n1 lies strictly below 4
NO

Confirm or reject: Foliar treatment phytotoxicity, Cotton of Cn1ncnc1COCc1nc(C(F)(F)F)ccc1C(=O)Nc1nnnn1C lies strictly below 4
NO

Confirm or reject: Foliar treatment phytotoxicity, Cotton of Cn1nnc(COCc2nc(C(F)(F)F)ccc2C(=O)N(c2nnnn2C)S(C)(=O)=O)n1 lies strictly below 4
NO

Confirm or reject: Foliar treatment phytotoxicity, Cotton of CCOC(=O)OC(C)N(C(=O)c1ccc(C(F)(F)F)nc1COCc1nnn(C)n1)c1nnnn1C (stereo not drawn) lies strictly below 4
YES

====

Test system: crabgrass
measurement protocol: Herbicidal activity test against upland field weeds (foliar treatment test)
Format: in vivo
Parameters: key: 0 (no control); 100 (complete control)
study conditions: 50 g ai/ha, scale 0-100
metric name: Foliar treatment herbicidal activity, Crabgrass

Can you look up Foliar treatment herbicidal activity, Crabgrass on crabgrass for CCN(Cc1nnn(C)n1)Cc1nc(C(F)(F)F)ccc1C(=O)Nc1nnnn1C [Compound No. 2-94] ?
0

Can you look up Foliar treatment herbicidal activity, Crabgrass on crabgrass for Cn1nnc(CSCc2nc(C(F)(F)F)ccc2C(=O)Nc2nnnn2C)n1 [Compound No. 2-102] ?
100

Can you look up Foliar treatment herbicidal activity, Crabgrass on crabgrass for Cn1nnnc1COc1nc(C(F)(F)F)ccc1C(=O)Nc1nnnn1C [Compound No. 1-1] ?
100

Can you look up Foliar treatment herbicidal activity, Crabgrass on crabgrass for Cn1nnc(CSCc2nc(C(F)(F)F)ccc2C(=O)N(C(=O)c2ccccc2)c2nnnn2C)n1 [Compound No. 2-109] ?
100

Can you look up Foliar treatment herbicidal activity, Crabgrass on crabgrass for Cn1nnnc1COc1nc(C(F)(F)F)cc(Cl)c1C(=O)Nc1nnnn1C [Compound No. 1-13] ?
0

Can you look up Foliar treatment herbicidal activity, Crabgrass on crabgrass for CSc1nc(COCc2nc(C(F)(F)F)ccc2C(=O)Nc2nnnn2C)nn1C [Compound No. 2-131] ?
100

Can you look up Foliar treatment herbicidal activity, Crabgrass on crabgrass for Cn1nnnc1NC(=O)c1ccc(C(F)(F)F)nc1COCc1nc(C(F)F)n(C)n1 [Compound No. 2-123] ?
95

Can you look up Foliar treatment herbicidal activity, Crabgrass on crabgrass for CCn1nnc(COCc2nc(C(F)(F)F)ccc2C(=O)Nc2nnnn2C)n1 [Compound No. 2-87] ?
0

Can you look up Foliar treatment herbicidal activity, Crabgrass on crabgrass for Cn1nnc(CNc2nc(C(F)(F)F)ccc2C(=O)Nc2nnnn2C)n1 [Compound No. 2-32] ?
0

Can you look up Foliar treatment herbicidal activity, Crabgrass on crabgrass for CCc1cc(C(=O)Nc2nnnn2C)c(OCc2nnnn2C)nc1C(F)(F)F [Compound No. 1-19] ?
0

Can you look up Foliar treatment herbicidal activity, Crabgrass on crabgrass for Cn1nnnc1COc1nc(C(F)(F)F)ccc1C(=O)Nc1nnnn1C(F)F [Compound No. 1-4] ?
0

Can you look up Foliar treatment herbicidal activity, Crabgrass on crabgrass for Cn1nnnc1COc1nc(Cl)ccc1C(=O)Nc1nnnn1C [Compound No. 1-20] ?
0

Can you look up Foliar treatment herbicidal activity, Crabgrass on crabgrass for CN(C(=O)c1ccc(C(F)(F)F)nc1OCc1nnnn1C(F)F)c1nnnn1C [Compound No. 1-8] ?
0

Can you look up Foliar treatment herbicidal activity, Crabgrass on crabgrass for CC(OC(=O)OC1CCCCC1)N(C(=O)c1ccc(C(F)(F)F)nc1COCc1nnn(C)n1)c1nnnn1C (stereo not drawn) [Compound No. 4-11] ?
98

Can you look up Foliar treatment herbicidal activity, Crabgrass on crabgrass for COC(=O)OC(C)N(C(=O)c1ccc(C(F)(F)F)nc1CSCc1nnn(C)n1)c1nnnn1C (stereo not drawn) [Compound No. 4-3] ?
98

Can you look up Foliar treatment herbicidal activity, Crabgrass on crabgrass for C=Cc1cc(C(=O)Nc2nnnn2C)c(OCc2nnnn2C)nc1C(F)(F)F [Compound No. 1-18] ?
0

Can you look up Foliar treatment herbicidal activity, Crabgrass on crabgrass for CCOC(=O)OC(C)n1nnn(C)c1=NC(=O)c1ccc(C(F)(F)F)nc1CSCc1nnn(C)n1 (stereo not drawn) [Compound No. 4-10] ?
100

Can you look up Foliar treatment herbicidal activity, Crabgrass on crabgrass for CCOC(=O)OC(C)N(C(=S)c1ccc(C(F)(F)F)nc1CSCc1nnn(C)n1)c1nnnn1C (stereo not drawn) [Compound No. 4-9] ?
98

Can you look up Foliar treatment herbicidal activity, Crabgrass on crabgrass for Cn1nc(COCc2nc(C(F)(F)F)ccc2C(=O)Nc2nnnn2C)nc1I [Compound No. 2-137] ?
95

Can you look up Foliar treatment herbicidal activity, Crabgrass on crabgrass for CCCn1nnnc1NC(=O)c1ccc(C(F)(F)F)nc1COCc1ncn(C)n1 [Compound No. 2-114] ?
0

Can you look up Foliar treatment herbicidal activity, Crabgrass on crabgrass for CCCn1nnnc1NC(=O)c1ccc(C(F)(F)F)nc1COCc1nc(C(F)F)n(C)n1 [Compound No. 2-124] ?
95

Can you look up Foliar treatment herbicidal activity, Crabgrass on crabgrass for CC(C)OC(=O)OC(C)N(C(=O)c1ccc(C(F)(F)F)nc1COCc1nnn(C)n1)c1nnnn1C (stereo not drawn) [Compound No. 4-12] ?
95

Can you look up Foliar treatment herbicidal activity, Crabgrass on crabgrass for COC(=O)OC(C)N(C(=O)c1ccc(C(F)(F)F)nc1COCc1nnn(C)n1)c1nnnn1C (stereo not drawn) [Compound No. 4-4] ?
98

Can you look up Foliar treatment herbicidal activity, Crabgrass on crabgrass for CCOC(=O)OC(C)N(C(=O)c1ccc(C(F)(F)F)nc1COCc1nnn(C)n1)c1nnnn1C (stereo not drawn) [Compound No. 4-8] ?
98

Where do these numbers come from? They come from patent US12495798B2.
